- Tested on: Detroit 551 cells
- Procedure Summary: Growth inhibition assay (MTT), Detroit 551 normal fibroblasts
- Assay type: cell-based
- Applied Conditions: Homo sapiens, treated for three generations, read-out: Growth inhibitory activity IC50, Detroit 551
Measurement Label: pIC50
# pIC50 = -log10(concentration in molar units)

Entry `CCCCCCCCCCCC[C@@H](O)[C@H]1CC[C@@H]([C@@H](O)CCCCC(=O)CCCCCCCC2=C[C@H](C)OC2=O)O1` ; pIC50 = 6.45

----------
- Test system: NPC-TW01 cells
- Procedure Summary: Growth inhibition assay (MTT), NPC-TW01
- Type: cell-based
- Applied Conditions: Homo sapiens, Supplemental Table 1, read-out: Growth inhibitory activity IC50, NPC-TW01 (Supplemental Table 1)
Measurement Label: IC50 (nM)
Reply with just the number (in nM).

Entry `CCCCCCCCCCCC[C@@H](O)[C@H]1CC[C@@H]([C@@H](O)CCCCC(=O)CCCCCCCC2=C[C@H](C)OC2=O)O1` ; IC50 = 31.3

----------
// reported IC50 for each item listed
- System: Hep 3B cells
- Procedure Summary: Growth inhibition assay (MTT), Hep 3B
- Format: cell-based
- Applied Conditions: Homo sapiens, Hep3B, treated for three generations, footnote a, read-out: Growth inhibitory activity IC50, Hep 3B
- Procedure: The colorimetric assay for cellular growth and survival was performed as described by Hansen et al., with slight modifications. Pre-determinate numbers of cells were seeded in a 96-well microplate and designated compounds at various concentrations were added for the indicated time period. MTT containing solution was added after compound treatment and conversion of MTT to formazan by metabolically viable cells was measured by absorbance at 490 nm in a 96-well microtiter plate reader. […]

# Molecule, IC50
measured = [
    ("CN(Cc1cnc2nc(N)nc(N)c2n1)c1ccc(C(=O)N[C@@H](CCC(=O)O)C(=O)O)cc1 [methotrexate, reference compound]", "> 2000 nM"),
]

The record that follows has no IC50 shown yet.
Entry `CCCCCCCCCCCC[C@@H](O)[C@H]1CC[C@@H]([C@@H](O)CCCCC(=O)CCCCCCCC2=C[C@H](C)OC2=O)O1` ; IC50 = > 2000 nM

----------
- System: TW01-R-MTX cells
- Procedure Summary: Growth inhibition assay (MTT), methotrexate-resistant NPC-TW01
- Format: cell-based
- Applied Conditions: Homo sapiens, drug-resistant cell line, three generations, read-out: Growth inhibitory activity IC50, TW01-R-MTX
Measurement Label: pIC50
# pIC50 = -log10(concentration in molar units)

Entry CCCCCCCCCCCC[C@@H](O)[C@H]1CC[C@@H]([C@@H](O)CCCCC(=O)CCCCCCCC2=C[C@H](C)OC2=O)O1 [corossolone] ; pIC50 = 7.54

----------
- System: FaDu cells
- Procedure Summary: Growth inhibition assay (MTT), FaDu
- Format: cell-based
- Applied Conditions: Homo sapiens, treated for three generations, footnote a, read-out: Growth inhibitory activity IC50, FaDu
Measurement Label: IC50

Log: FaDu cells, compound `CCCCCCCCCCCC[C@@H](O)[C@H]1CC[C@@H]([C@@H](O)CCCCC(=O)CCCCCCCC2=C[C@H](C)OC2=O)O1` , IC50 = > 2 µM

----------
- Tested on: Detroit 551 cells
- Procedure Summary: Growth inhibition assay (MTT), Detroit 551 normal fibroblasts
- Format: cell-based
- Applied Conditions: Homo sapiens, treated for three generations, footnote a, read-out: Growth inhibitory activity IC50, Detroit 551
Measurement Label: IC50 (µM)
Reply with just the number (in µM).

Entry CN(Cc1cnc2nc(N)nc(N)c2n1)c1ccc(C(=O)N[C@@H](CCC(=O)O)C(=O)O)cc1 [methotrexate, reference compound] ; IC50 = 2
